- Target system: T1, IL10Rα/IL2Rγ receptor (human, UniProt Q13651 22-578; P31785 23-369)
- T1 sequence (looked up) 1: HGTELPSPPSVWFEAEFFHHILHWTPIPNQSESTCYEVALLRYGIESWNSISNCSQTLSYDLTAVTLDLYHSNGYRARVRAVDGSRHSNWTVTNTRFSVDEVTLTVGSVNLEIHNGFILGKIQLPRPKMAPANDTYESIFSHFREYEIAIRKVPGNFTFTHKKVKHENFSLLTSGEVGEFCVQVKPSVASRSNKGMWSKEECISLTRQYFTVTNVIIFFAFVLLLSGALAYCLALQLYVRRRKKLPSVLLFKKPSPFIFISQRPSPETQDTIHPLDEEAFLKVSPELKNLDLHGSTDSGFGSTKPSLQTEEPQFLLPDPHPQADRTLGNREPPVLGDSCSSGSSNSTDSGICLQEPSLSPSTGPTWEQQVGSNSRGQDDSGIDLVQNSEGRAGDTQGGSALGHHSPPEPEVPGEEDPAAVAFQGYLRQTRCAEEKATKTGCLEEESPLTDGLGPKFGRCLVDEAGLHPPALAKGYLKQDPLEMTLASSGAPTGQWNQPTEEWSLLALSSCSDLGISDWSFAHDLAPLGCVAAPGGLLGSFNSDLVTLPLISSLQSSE
- T1 sequence (looked up) 2: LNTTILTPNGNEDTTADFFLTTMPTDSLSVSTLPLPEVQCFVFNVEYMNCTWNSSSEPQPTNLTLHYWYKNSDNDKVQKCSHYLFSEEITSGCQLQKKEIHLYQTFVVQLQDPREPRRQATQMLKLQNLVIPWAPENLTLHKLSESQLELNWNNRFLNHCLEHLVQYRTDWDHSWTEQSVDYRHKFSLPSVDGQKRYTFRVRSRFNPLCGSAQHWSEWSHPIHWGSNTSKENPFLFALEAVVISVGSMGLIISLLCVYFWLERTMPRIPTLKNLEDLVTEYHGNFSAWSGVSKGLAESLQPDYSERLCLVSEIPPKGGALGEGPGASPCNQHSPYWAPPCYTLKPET
- Method description: cell-based or functional assay
Recorded metric: pSTAT3 MFI, NK cells, 0.1 nM (unstimulated 1315) (MFI)

- Binder: "DR471(DR241-DR231) (bispecific antibody) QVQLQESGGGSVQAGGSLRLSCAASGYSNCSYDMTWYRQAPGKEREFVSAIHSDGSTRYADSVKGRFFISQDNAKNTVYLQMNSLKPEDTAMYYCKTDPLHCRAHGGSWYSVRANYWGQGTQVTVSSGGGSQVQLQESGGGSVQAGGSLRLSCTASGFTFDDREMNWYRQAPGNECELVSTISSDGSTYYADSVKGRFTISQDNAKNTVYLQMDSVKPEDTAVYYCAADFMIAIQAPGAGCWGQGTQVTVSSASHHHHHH"
  Reported: 1260
- Binder: "DR395(DR229-DR239) (bispecific antibody) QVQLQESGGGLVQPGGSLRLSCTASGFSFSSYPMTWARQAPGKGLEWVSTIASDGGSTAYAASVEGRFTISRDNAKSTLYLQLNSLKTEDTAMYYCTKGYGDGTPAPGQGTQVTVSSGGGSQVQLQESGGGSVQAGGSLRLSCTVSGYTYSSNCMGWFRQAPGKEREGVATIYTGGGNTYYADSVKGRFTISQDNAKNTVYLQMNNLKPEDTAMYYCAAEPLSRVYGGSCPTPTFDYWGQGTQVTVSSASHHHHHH"
  Reported: 1310
- Binder: "DR441(DR236-DR231) (bispecific antibody) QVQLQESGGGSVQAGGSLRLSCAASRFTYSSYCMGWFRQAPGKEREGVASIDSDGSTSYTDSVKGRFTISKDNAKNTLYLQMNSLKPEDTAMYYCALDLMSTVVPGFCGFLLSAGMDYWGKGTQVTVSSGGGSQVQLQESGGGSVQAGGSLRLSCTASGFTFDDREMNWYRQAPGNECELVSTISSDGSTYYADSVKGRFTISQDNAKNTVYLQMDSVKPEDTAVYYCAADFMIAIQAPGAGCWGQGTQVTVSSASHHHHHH"
  Reported: 1270
- Binder: "DR465(DR240-DR231) (bispecific antibody) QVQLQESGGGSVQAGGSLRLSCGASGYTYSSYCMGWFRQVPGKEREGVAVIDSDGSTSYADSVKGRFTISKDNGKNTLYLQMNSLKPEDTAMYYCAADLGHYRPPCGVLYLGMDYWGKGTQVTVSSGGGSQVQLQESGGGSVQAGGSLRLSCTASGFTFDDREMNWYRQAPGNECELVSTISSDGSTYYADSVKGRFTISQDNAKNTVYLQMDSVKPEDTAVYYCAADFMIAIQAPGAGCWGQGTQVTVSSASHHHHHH"
  Reported: 1250
